- run-description: Liver microsomes stability, mouse
- Assay type: in vitro ADME
- test-context: mouse liver microsomes, Without Cofactors, 60 min
// values below are reported Remaining Percentage
Kindly answer with a numeric value in %, unit omitted.

Examples from the recorded data:
| compound | Remaining Percentage [%] |
| --- | --- |
| O=C(O)Cc1ccccc1Nc1c(Cl)cccc1Cl | 96.59 |
| [2H]C([2H])(c1c[nH]c2ccc(OCCCCN3C(=O)c4ccccc4C3=O)cc12)[C@H]1CCCN1C([2H])([2H])[2H] [(R) I-244] | 86.59 |
| COc1ccc2[nH]cc(CCN(C)C)c2c1 | 95.24 |
| COCCN1CCC[C@@H]1Cc1c[nH]c2ccc(OC)cc12 [(R) I-98] | 100.99 |

Returns the measured Remaining Percentage for the input compound. Input: [2H]C([2H])(c1c[nH]c2ccc(OCCCCCN3C(=O)C4CCCCC4C3=O)cc12)[C@H]1CCCN1C([2H])([2H])[2H] (mixture of isomers) [Rac (R) I-248]
95.85

Please do the same for [2H]C([2H])(c1c[nH]c2ccc(OCCCCCN3C(=O)c4ccccc4C3=O)cc12)[C@H]1CCCN1C([2H])([2H])[2H] [(R) I-245] as well.
93.17

* * *

- run-description: Liver microsomes stability, human
- Assay type: in vitro ADME
- test-context: human liver microsomes, Without Cofactors, 30 min
test-readout: Remaining Percentage (%)
Kindly answer with a numeric value in %, unit omitted.

Examples from the recorded data:
| molecule | Remaining Percentage [%] |
| --- | --- |
| [2H]C([2H])(c1c[nH]c2ccc(OCCCCCN3C(=O)c4ccccc4C3=O)cc12)[C@H]1CCCN1C([2H])([2H])[2H] [(R) I-245] | 101.09 |
| COc1ccc2[nH]cc(CCN(C)C)c2c1 | 18.58 |
| [2H]C([2H])(c1c[nH]c2ccc(OCCCCCN3C(=O)C4CCCCC4C3=O)cc12)[C@H]1CCCN1C([2H])([2H])[2H] (mixture of isomers) [Rac (R) I-248] | 100.47 |
| [2H]C([2H])(c1c[nH]c2ccc(OCCCCN3C(=O)c4ccccc4C3=O)cc12)[C@H]1CCCN1C([2H])([2H])[2H] [(R) I-244] | 94.44 |

Returns the measured Remaining Percentage for the input molecule. Input: `O=C(O)Cc1ccccc1Nc1c(Cl)cccc1Cl`
112.67

Please do the same for COCCN1CCC[C@@H]1Cc1c[nH]c2ccc(OC)cc12 [(R) I-98] as well.
100.00

* * *

// values below are reported Emax (% of serotonin)
- target-or-system: human 5-HT2B receptor (Homo sapiens, UniProt P41595)
- Sequence (P41595 whole entry): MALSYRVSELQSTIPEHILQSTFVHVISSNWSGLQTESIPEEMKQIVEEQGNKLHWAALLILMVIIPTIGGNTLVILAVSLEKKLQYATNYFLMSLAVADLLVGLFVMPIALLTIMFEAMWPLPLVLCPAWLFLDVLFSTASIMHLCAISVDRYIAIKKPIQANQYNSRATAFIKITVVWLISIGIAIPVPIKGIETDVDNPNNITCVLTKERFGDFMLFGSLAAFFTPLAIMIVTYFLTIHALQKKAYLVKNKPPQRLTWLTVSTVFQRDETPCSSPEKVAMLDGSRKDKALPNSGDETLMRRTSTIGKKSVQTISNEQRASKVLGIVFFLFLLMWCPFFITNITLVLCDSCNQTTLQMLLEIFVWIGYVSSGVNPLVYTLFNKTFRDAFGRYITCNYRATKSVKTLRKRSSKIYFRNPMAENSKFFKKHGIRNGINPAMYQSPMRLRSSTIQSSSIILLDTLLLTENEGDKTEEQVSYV
- run-description: Human 5-HT2B positive allosteric modulator (PAM) assay
- Assay type: cell-based
- Parameters: expressed in transfected cells; host or cells: HEK293
- test-context: PAM mode, agonist at EC20; HEK293 cells; relative to maximum response of serotonin

Examples from the recorded data:
| compound | test-readout | observed-measurement |
| --- | --- | --- |
| [2H]C([2H])(c1c[nH]c2ccc(OCCCCCN3C(=O)[C@H]4CCCC[C@H]4C3=O)cc12)[C@H]1CCCN1C([2H])([2H])[2H] [Cis (R) I-248] | Emax (% of serotonin) | 7.97 % of serotonin |
| [2H]C([2H])(c1c[nH]c2ccc(OCCCCN3C(=O)c4ccccc4C3=O)cc12)[C@H]1CCCN1C([2H])([2H])[2H] [(R) I-244] | Emax (% of serotonin) | 26.89 % of serotonin |
| CSc1ccc2[nH]cc(C[C@H]3CCCN3C)c2c1 [(R) I-1] | Emax (% of serotonin) | 0 % of serotonin |
| COCCN1CCC[C@@H]1Cc1c[nH]c2ccc(OC)cc12 [(R) I-98] | Emax (% of serotonin) | 0 % of serotonin |

Read the next record carefully.
Returns the measured Emax (% of serotonin) for the input compound. Input: [2H]C([2H])(c1c[nH]c2ccc(OCCCCCN3C(=O)c4ccccc4C3=O)cc12)[C@H]1CCCN1C([2H])([2H])[2H] [(R) I-245]
0 % of serotonin

* * *

- target-or-system: human 5-HT2B receptor (Homo sapiens, UniProt P41595)
- run-description: Human 5-HT2B FLIPR calcium mobilization assay
- Type: cell-based
- Parameters: expressed in transfected cells; host or cells: HEK293
test-readout: pEC50
Worth noting: pEC50 values are minus log10 of concentrations stated in mol/L.

Returns the measured pEC50 for the input molecule. Input: CSc1ccc2[nH]cc(C[C@H]3CCCN3C)c2c1 [(R) I-1]
8.56

* * *

- run-description: Pharmacokinetic studies in rat (i.v.)
- Type: in vivo
- test-context: male, Sprague-Dawley, plasma, intravenous, dose per Dose column (1.32-2.09 mg/kg), 0.25 h, first animal (R07/R04/R01/R10), read-out: Plasma concentration
test-readout: concentration at 0.25 h (ng/mL)
Kindly answer with a numeric value in ng/mL, unit omitted.

Examples from the recorded data:
| compound | concentration at 0.25 h / ng/mL |
| --- | --- |
| [2H]C([2H])(c1c[nH]c2ccc(OCCCCN3C(=O)c4ccccc4C3=O)cc12)[C@H]1CCCN1C([2H])([2H])[2H] [(R) I-244] | 252 |
| [2H]C([2H])(c1c[nH]c2ccc(OCCCCCN3C(=O)c4ccccc4C3=O)cc12)[C@H]1CCCN1C([2H])([2H])[2H] [(R) I-245] | 307 |
| COCCN1CCC[C@@H]1Cc1c[nH]c2ccc(OC)cc12 [(R) I-98] | 411 |

Returns the measured concentration at 0.25 h for the input compound. Input: [2H]C([2H])(c1c[nH]c2ccc(OCCCCCN3C(=O)C4CCCCC4C3=O)cc12)[C@H]1CCCN1C([2H])([2H])[2H] (mixture of isomers) [Rac (R) I-248]
235

* * *

- target-or-system: human 5-HT1A receptor (Homo sapiens)
- Construct: expressed in transfected cells; host or cells: CHO-K1
- Sequence (P08908 1-422): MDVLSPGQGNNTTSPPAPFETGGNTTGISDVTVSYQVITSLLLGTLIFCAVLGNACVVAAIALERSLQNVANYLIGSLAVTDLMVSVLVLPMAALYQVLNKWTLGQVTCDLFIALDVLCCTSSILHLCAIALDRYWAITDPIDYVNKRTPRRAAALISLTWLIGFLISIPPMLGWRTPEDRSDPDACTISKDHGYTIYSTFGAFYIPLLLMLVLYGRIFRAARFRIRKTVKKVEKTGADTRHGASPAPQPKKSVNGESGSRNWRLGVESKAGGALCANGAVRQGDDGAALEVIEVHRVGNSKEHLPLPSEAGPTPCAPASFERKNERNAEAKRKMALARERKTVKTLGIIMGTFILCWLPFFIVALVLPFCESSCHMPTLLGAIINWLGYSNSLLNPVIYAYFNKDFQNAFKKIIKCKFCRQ
- run-description: Human 5-HT1A cAMP assay
- Type: cell-based
- test-context: cAMP assay with forskolin, stably transfected CHO-K1 cells, 30 min; read-out: EC50
// values below are reported EC50
Kindly answer with a numeric value in nM, unit omitted.

Examples from the recorded data:
| compound | units-label | EC50 |
| --- | --- | --- |
| [2H]C([2H])(c1c[nH]c2ccc(OCCCCN3C(=O)c4ccccc4C3=O)cc12)[C@H]1CCCN1C([2H])([2H])[2H] [(R) I-244] | nM | 6.3 |
| [2H]C([2H])(c1c[nH]c2ccc(OCCCCCN3C(=O)c4ccccc4C3=O)cc12)[C@H]1CCCN1C([2H])([2H])[2H] [(R) I-245] | nM | 19.5 |
| COCCN1CCC[C@@H]1Cc1c[nH]c2ccc(OC)cc12 [(R) I-98] | nM | 40.3 |

Returns the measured EC50 for the input compound. Input: [2H]C([2H])(c1c[nH]c2ccc(OCCCCCN3C(=O)[C@H]4CCCC[C@H]4C3=O)cc12)[C@H]1CCCN1C([2H])([2H])[2H] [Cis (R) I-248]
52.7

* * *

// values below are reported microsomal CLint at 2 μM
- run-description: Liver microsomes stability, mouse
- Assay type: in vitro ADME
- test-context: male, pooled liver microsomes; mouse liver microsomes, 2 μM compound, 0.5 mg/mL microsomes
Kindly answer with a numeric value in µL/min/mg, unit omitted.

| compound | observed-measurement |
| --- | --- |
| COCCN1CCC[C@@H]1Cc1c[nH]c2ccc(OC)cc12 [(R) I-98] | 96.3 |

Returns the measured microsomal CLint at 2 μM for the input compound. Input: [2H]C([2H])(c1c[nH]c2ccc(OCCCCCN3C(=O)c4ccccc4C3=O)cc12)[C@H]1CCCN1C([2H])([2H])[2H] [(R) I-245]
271
